biological target: Protein cereblon/Lysine-specific demethylase 5B (Homo sapiens) (UniProt Q96SW2+Q9UGL1); test: PROTAC activity at CRBN/KDM5B in human 22Rv1 cells assessed as induction of KDM5B degradation at 10 uM incubated for 12 hrs by Western blot analysis relative to control; type: cell-based
Sequence (Q96SW2 whole entry, looked up): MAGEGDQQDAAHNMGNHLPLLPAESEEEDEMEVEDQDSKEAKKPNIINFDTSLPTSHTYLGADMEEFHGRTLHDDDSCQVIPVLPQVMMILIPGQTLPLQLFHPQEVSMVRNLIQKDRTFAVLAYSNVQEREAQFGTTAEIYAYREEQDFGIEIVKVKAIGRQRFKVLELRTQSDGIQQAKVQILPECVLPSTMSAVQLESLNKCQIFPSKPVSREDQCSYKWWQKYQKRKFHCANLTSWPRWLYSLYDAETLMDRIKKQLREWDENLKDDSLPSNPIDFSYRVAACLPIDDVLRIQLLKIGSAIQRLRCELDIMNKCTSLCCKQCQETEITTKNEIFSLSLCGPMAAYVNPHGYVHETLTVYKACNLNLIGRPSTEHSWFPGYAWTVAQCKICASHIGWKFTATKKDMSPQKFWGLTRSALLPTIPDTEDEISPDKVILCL
Sequence (Q9UGL1 whole entry, looked up): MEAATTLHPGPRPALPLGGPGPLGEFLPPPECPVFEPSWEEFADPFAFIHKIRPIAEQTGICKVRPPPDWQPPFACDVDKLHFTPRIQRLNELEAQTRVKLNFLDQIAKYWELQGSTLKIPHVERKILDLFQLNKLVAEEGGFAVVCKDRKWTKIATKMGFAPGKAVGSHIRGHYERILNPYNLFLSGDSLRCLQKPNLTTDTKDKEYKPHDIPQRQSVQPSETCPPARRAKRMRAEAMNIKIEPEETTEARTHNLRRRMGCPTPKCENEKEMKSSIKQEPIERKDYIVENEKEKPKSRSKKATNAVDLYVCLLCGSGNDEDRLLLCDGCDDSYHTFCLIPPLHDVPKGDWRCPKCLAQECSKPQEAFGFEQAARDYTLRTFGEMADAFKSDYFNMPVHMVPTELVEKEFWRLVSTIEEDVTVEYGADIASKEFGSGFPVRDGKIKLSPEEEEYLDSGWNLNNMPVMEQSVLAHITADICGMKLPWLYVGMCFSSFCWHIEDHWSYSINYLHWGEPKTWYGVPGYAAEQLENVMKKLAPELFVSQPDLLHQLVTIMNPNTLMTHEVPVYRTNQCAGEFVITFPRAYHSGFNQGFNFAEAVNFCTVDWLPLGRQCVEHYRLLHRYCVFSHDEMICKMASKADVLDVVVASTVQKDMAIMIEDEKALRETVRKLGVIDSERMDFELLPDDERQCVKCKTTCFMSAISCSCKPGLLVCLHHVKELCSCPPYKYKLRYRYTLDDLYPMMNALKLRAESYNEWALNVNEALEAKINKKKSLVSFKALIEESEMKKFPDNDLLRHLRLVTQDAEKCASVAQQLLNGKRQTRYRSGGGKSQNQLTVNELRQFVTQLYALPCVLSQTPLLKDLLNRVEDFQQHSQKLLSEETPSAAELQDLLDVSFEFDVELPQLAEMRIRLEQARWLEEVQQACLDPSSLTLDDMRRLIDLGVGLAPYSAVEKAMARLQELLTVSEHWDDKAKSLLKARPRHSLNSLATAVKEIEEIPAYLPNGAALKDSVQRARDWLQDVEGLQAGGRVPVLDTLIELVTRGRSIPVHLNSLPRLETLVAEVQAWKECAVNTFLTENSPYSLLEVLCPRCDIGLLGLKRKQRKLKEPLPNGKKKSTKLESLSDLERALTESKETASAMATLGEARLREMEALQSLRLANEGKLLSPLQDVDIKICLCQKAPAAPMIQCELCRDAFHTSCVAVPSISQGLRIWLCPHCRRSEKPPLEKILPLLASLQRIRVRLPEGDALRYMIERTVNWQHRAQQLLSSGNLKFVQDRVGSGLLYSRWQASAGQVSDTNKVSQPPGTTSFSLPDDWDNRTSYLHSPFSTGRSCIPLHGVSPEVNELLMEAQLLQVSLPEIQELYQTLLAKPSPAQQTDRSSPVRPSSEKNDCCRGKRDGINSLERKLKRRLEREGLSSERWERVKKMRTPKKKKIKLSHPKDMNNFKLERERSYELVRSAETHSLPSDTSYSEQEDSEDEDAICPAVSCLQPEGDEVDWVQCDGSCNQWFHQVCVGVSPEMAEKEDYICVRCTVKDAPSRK
Give Activity for every item shown.

Determine from records and report Activity for N#Cc1cnn2c(=O)cc(-c3ccc(OCCNC(=O)CCOCCOCCOCCNc4cccc5c4C(=O)N(C4CCC(=O)NC4=O)C5=O)cc3)[nH]c12 (stereo not given)
0%

Determine from records and report Activity for N#Cc1cnn2c(=O)cc(-c3ccc(OCCNC(=O)CCOCCOCCNc4cccc5c4C(=O)N(C4CCC(=O)NC4=O)C5=O)cc3)[nH]c12 (stereo not given)
0%

Determine from records and report Activity for N#Cc1cnn2c(=O)cc(-c3ccc(OCCNC(=O)CCOCCNc4cccc5c4C(=O)N(C4CCC(=O)NC4=O)C5=O)cc3)[nH]c12 (stereo not given)
5.27%

Determine from records and report Activity for N#Cc1cnn2c(=O)cc(-c3ccc(OCC(=O)NCCOCCNC(=O)COc4cccc5c4C(=O)N(C4CCC(=O)NC4=O)C5=O)cc3)[nH]c12 (stereo not given)
0%

Determine from records and report Activity for N#Cc1cnn2c(=O)cc(-c3ccc(OCCNC(=O)CCCCCNc4cccc5c4C(=O)N(C4CCC(=O)NC4=O)C5=O)cc3)[nH]c12 (stereo not given)
10.8%

Determine from records and report Activity for N#Cc1cnn2c(=O)cc(-c3ccc(OCC(=O)NCCOCCOc4cccc5c4C(=O)N(C4CCC(=O)NC4=O)C5=O)cc3)[nH]c12 (stereo not given)
68.3%

Determine from records and report Activity for N#Cc1cnn2c(=O)cc(-c3ccc(OCC(=O)NCCOCCNC(=O)CNc4cccc5c4C(=O)N(C4CCC(=O)NC4=O)C5=O)cc3)[nH]c12 (stereo not given)
0%

Determine from records and report Activity for N#Cc1cnn2c(=O)cc(-c3ccc(OCCNC(=O)CCCNc4cccc5c4C(=O)N(C4CCC(=O)NC4=O)C5=O)cc3)[nH]c12 (stereo not given)
0%

Determine from records and report Activity for N#Cc1cnn2c(=O)cc(-c3ccc(OCCNC(=O)CCOCCOc4cccc5c4C(=O)N(C4CCC(=O)NC4=O)C5=O)cc3)[nH]c12 (stereo not given)
6.31%

Determine from records and report Activity for N#Cc1cnn2c(=O)cc(-c3ccc(OCCNC(=O)CCOCCOCCOCCOCCNc4cccc5c4C(=O)N(C4CCC(=O)NC4=O)C5=O)cc3)[nH]c12 (stereo not given)
0%
